- System: hepatocellular carcinoma (HepG2)
- TEST_DETAILS: In vitro antiproliferative activity, HepG2
- Type: cell-based, human
- CONDITION_PARAMETERS: HepG2 cells
pIC50: −log10 of the molar value.
MEASURE: pIC50

Examples with their reported pIC50 follow.
Clc1ncnc2c1ccn2Cc1cn(C[c-]2cccc2)nn1.[Fe+2].c1cc[cH-]c1 [Compound 11a]    4.38
[Fe+2].c1cc[cH-]c1.c1ccc2c(c1)ccn2Cc1cn(C[c-]2cccc2)nn1 [Compound 24a]    4.27

[A] CC([c-]1cccc1)n1cc(Cn2cnc3c(Cl)nc(N)nc32)nn1.[Fe+2].c1cc[cH-]c1 (centres unmarked) [Compound 14b]
[B] Clc1ncnc2c1ccn2Cc1cn(-[c-]2cccc2)nn1.[Fe+2].c1cc[cH-]c1 [Compound 11c]
Exercise: Param metric = pIC50; output whichever of A , B has the minimum value. Lab note: record the label of whichever item you select.
Key: A
